Please provide measured IC50 for the entries that follow.
tested on: 252836-082-R-J2-PDC tumor spheroids, viability; assay: Anticancer human tumor 252836-082-R-J2-PDC patient-derived head and neck squamous cell carcinoma cell line growth inhibition [PI3K]; conditions: curve of first compound; second compound 3.16 µM; spheroids with HUVEC and MSC

Tell me IC50 reported for CC1(C)CCC(CN2CCN(c3ccc(C(=O)NS(=O)(=O)c4ccc(NCC5CCOCC5)c([N+](=O)[O-])c4)c(Oc4cnc5[nH]ccc5c4)c3)CC2)=C(c2ccc(Cl)cc2)C1 + CC(Nc1ncnc2nc[nH]c12)c1cc2cccc(Cl)c2c(=O)n1-c1ccccc1
> 10000 nM

Report IC50 for CCN1CCN(Cc2ccc(Nc3ncc(F)c(-c4cc(F)c5nc(C)n(C(C)C)c5c4)n3)nc2)CC1 + CC(Nc1ncnc2nc[nH]c12)c1cc2cccc(Cl)c2c(=O)n1-c1ccccc1
> 1000 nM

Answer with reported IC50 of C=CC(=O)N1CCN(c2nc(=O)n(-c3c(C)ccnc3C(C)C)c3nc(-c4c(O)cccc4F)c(F)cc23)C(C)C1 (stereo unspecified) + CC(Nc1ncnc2nc[nH]c12)c1cc2cccc(Cl)c2c(=O)n1-c1ccccc1
> 10000 nM

// fetch IC50 given entry C[C@@H](NC(=O)c1ncnc(N)c1Cl)c1ncc(C(=O)Nc2cc(C(F)(F)F)c(Cl)cn2)s1 + Cc1nc(NC(=O)N2CCCC2C(N)=O)sc1-c1ccnc(C(C)(C)C(F)(F)F)c1
< 31.6 nM

Write down IC50 measured for item C[C@@H](NC(=O)c1ncnc(N)c1Cl)c1ncc(C(=O)Nc2cc(C(F)(F)F)c(Cl)cn2)s1 + CC(Nc1ncnc2nc[nH]c12)c1cc2cccc(Cl)c2c(=O)n1-c1ccccc1
> 10000 nM

Look up IC50 of Cn1nccc1Nc1nccc(-c2ccn(C(CO)c3ccc(Cl)c(F)c3)c(=O)c2)n1 (stereo unspecified) + Cc1nc(NC(=O)N2CCCC2C(N)=O)sc1-c1ccnc(C(C)(C)C(F)(F)F)c1 and report it.
< 31.6 nM

Note down IC50 recorded for CC(Cn1ccc(-c2ccc(C#N)c(Cl)c2)n1)NC(=O)c1cc(C(C)O)[nH]n1 (stereo unspecified) + CC(Nc1ncnc2nc[nH]c12)c1cc2cccc(Cl)c2c(=O)n1-c1ccccc1
> 10000 nM

Name the recorded IC50 of the compound listed here: Cn1cnc2c(F)c(Nc3ccc(Br)cc3Cl)c(C(=O)NOCCO)cc21 + CC(Nc1ncnc2nc[nH]c12)c1cc2cccc(Cl)c2c(=O)n1-c1ccccc1
1480 nM

Complete the entry with IC50 for CC(C)NCC(C(=O)N1CCN(c2ncnc3c2C(C)CC3O)CC1)c1ccc(Cl)cc1 (stereo unspecified) + CC(Nc1ncnc2nc[nH]c12)c1cc2cccc(Cl)c2c(=O)n1-c1ccccc1
916 nM

For the compound C=CC(=O)N1CCN(c2nc(=O)n(-c3c(C)ccnc3C(C)C)c3nc(-c4c(O)cccc4F)c(F)cc23)C(C)C1 (stereo unspecified) + Cc1nc(NC(=O)N2CCCC2C(N)=O)sc1-c1ccnc(C(C)(C)C(F)(F)F)c1 , report IC50.
< 31.6 nM

Kindly indicate its recorded IC50. Item: Cn1ncc(Cl)c1-c1cc(C(=O)NC(CN)Cc2cccc(F)c2)sc1Cl (stereo unspecified) + CC(Nc1ncnc2nc[nH]c12)c1cc2cccc(Cl)c2c(=O)n1-c1ccccc1
538 nM

###

test system: 252836-082-R-J2-PDC tumor spheroids, viability; assay: Anticancer human tumor 252836-082-R-J2-PDC cell line growth inhibition [PI3K]; conditions: second compound 0.0316 µM; first compound 0.000316 µM; stronger effect = lower value; spheroids with HUVEC and MSC;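 further: spheroids exposed to agents for seven days before readout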;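 on viability, T/C: percent of vehicle DMSO control viability so 100% = untreated growth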
Threshold check on viability, T/C: strictly below 80% is class 1; on or above 80% is class 0.

Hi there! Is viability, T/C for CC(C)n1nc(-c2ccc3oc(N)nc3c2)c2c(N)ncnc21 + Cc1nc(NC(=O)N2CCCC2C(N)=O)sc1-c1ccnc(C(C)(C)C(F)(F)F)c1 below 80%, do you know?
class 0

Dear reviewer, please state whether CC(=O)c1c(C)c2cnc(Nc3ccc(N4CCNCC4)cn3)nc2n(C2CCCC2)c1=O + CC(Nc1ccc2c(c1)OCCn1cc(N3C(=O)OCC3C(F)F)nc1-2)C(N)=O has viability, T/C strictly beneath 80%.
class 0

Is 80% strictly greater than the compound's reported viability, T/C? compound: Cn1ncnc1[C@H]1c2n[nH]c(=O)c3cc(F)cc(c23)N[C@@H]1c1ccc(F)cc1 + CC(Nc1ccc2c(c1)OCCn1cc(N3C(=O)OCC3C(F)F)nc1-2)C(N)=O
class 0

Determine if CC(C)n1nc(-c2ccc3oc(N)nc3c2)c2c(N)ncnc21 + CC(Nc1ncnc2nc[nH]c12)c1cc2cccc(Cl)c2c(=O)n1-c1ccccc1 shows viability, T/C strictly lower than 80%.
class 0

Identify whether the compound CC(C)n1nc(-c2ccc3oc(N)nc3c2)c2c(N)ncnc21 + CC(Nc1ccc2c(c1)OCCn1cc(N3C(=O)OCC3C(F)F)nc1-2)C(N)=O records viability, T/C below 80%.
class 0

Below 80% on viability, T/C? Entry CC(=O)c1c(C)c2cnc(Nc3ccc(N4CCNCC4)cn3)nc2n(C2CCCC2)c1=O + CC(Nc1ncnc2nc[nH]c12)c1cc2cccc(Cl)c2c(=O)n1-c1ccccc1
class 0

Does the reported viability, T/C of CC(C)n1nc(-c2ccc3oc(N)nc3c2)c2c(N)ncnc21 + COc1c(OCCCN2CCOCC2)ccc2c3n(c(=NC(=O)c4cnc(N)nc4)nc12)CCN3 stay below 80%?
class 1

Hello, I'm reviewing records and need to know if viability, T/C of Cn1ncnc1[C@H]1c2n[nH]c(=O)c3cc(F)cc(c23)N[C@@H]1c1ccc(F)cc1 + COc1c(OCCCN2CCOCC2)ccc2c3n(c(=NC(=O)c4cnc(N)nc4)nc12)CCN3 is below 80%. Could you check?
class 1

Strictly below 80% in viability, T/C? CC(=O)c1c(C)c2cnc(Nc3ccc(N4CCNCC4)cn3)nc2n(C2CCCC2)c1=O + COc1c(OCCCN2CCOCC2)ccc2c3n(c(=NC(=O)c4cnc(N)nc4)nc12)CCN3
class 1

Would you kindly verify if viability, T/C of CC(=O)c1c(C)c2cnc(Nc3ccc(N4CCNCC4)cn3)nc2n(C2CCCC2)c1=O + Cc1nc(NC(=O)N2CCCC2C(N)=O)sc1-c1ccnc(C(C)(C)C(F)(F)F)c1 is strictly less than 80%?
class 0

Identify whether the compound Cn1ncnc1[C@H]1c2n[nH]c(=O)c3cc(F)cc(c23)N[C@@H]1c1ccc(F)cc1 + Cc1nc(NC(=O)N2CCCC2C(N)=O)sc1-c1ccnc(C(C)(C)C(F)(F)F)c1 records viability, T/C below 80%.
class 0

Record Cn1ncnc1[C@H]1c2n[nH]c(=O)c3cc(F)cc(c23)N[C@@H]1c1ccc(F)cc1 + CC(Nc1ncnc2nc[nH]c12)c1cc2cccc(Cl)c2c(=O)n1-c1ccccc1 : is its viability, T/C strictly below 80%?
class 0

###

Please go through the items and note down their viability, T/C.
test system: 252836-082-R-J2-PDC tumor spheroids, viability; test: Anticancer human tumor 252836-082-R-J2-PDC cell line growth inhibition [PI3K]; details: second compound 0.0316 µM; first compound 0.316 µM; stronger effect = lower value; spheroids with HUVEC and MSC;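 further: spheroids exposed to agents for seven days before readout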;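 on viability, T/C: percent of vehicle DMSO control viability so 100% = untreated growth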
Give just the numeric value; % need not be written.

# return recorded viability, T/C for entry C[C@@H](NC(=O)c1ncnc(N)c1Cl)c1ncc(C(=O)Nc2cc(C(F)(F)F)c(Cl)cn2)s1 + CC(Nc1ncnc2nc[nH]c12)c1cc2cccc(Cl)c2c(=O)n1-c1ccccc1
100

Retrieve viability, T/C measured for CC1(C)CCC(CN2CCN(c3ccc(C(=O)NS(=O)(=O)c4ccc(NCC5CCOCC5)c([N+](=O)[O-])c4)c(Oc4cnc5[nH]ccc5c4)c3)CC2)=C(c2ccc(Cl)cc2)C1 + CC(Nc1ccc2c(c1)OCCn1cc(N3C(=O)OCC3C(F)F)nc1-2)C(N)=O and print it.
76.5

Using known records, supply viability, T/C for Cn1nccc1Nc1nccc(-c2ccn(C(CO)c3ccc(Cl)c(F)c3)c(=O)c2)n1 (stereo not given) + Cc1nc(NC(=O)N2CCCC2C(N)=O)sc1-c1ccnc(C(C)(C)C(F)(F)F)c1
91

Note viability, T/C for the compound shown: CCN1CCN(Cc2ccc(Nc3ncc(F)c(-c4cc(F)c5nc(C)n(C(C)C)c5c4)n3)nc2)CC1 + Cc1nc(NC(=O)N2CCCC2C(N)=O)sc1-c1ccnc(C(C)(C)C(F)(F)F)c1
91.3

Report measured viability, T/C; entry is CCCS(=O)(=O)Nc1ccc(F)c(C(=O)c2c[nH]c3ncc(-c4ccc(Cl)cc4)cc23)c1F + CC(Nc1ccc2c(c1)OCCn1cc(N3C(=O)OCC3C(F)F)nc1-2)C(N)=O
87

Return viability, T/C for the following compound: CC1(C)CCC(CN2CCN(c3ccc(C(=O)NS(=O)(=O)c4ccc(NCC5CCOCC5)c([N+](=O)[O-])c4)c(Oc4cnc5[nH]ccc5c4)c3)CC2)=C(c2ccc(Cl)cc2)C1 + Cc1nc(NC(=O)N2CCCC2C(N)=O)sc1-c1ccnc(C(C)(C)C(F)(F)F)c1
96.2

Supply viability, T/C value. Item: CC1(C)CCC(CN2CCN(c3ccc(C(=O)NS(=O)(=O)c4ccc(NCC5CCOCC5)c([N+](=O)[O-])c4)c(Oc4cnc5[nH]ccc5c4)c3)CC2)=C(c2ccc(Cl)cc2)C1 + COc1c(OCCCN2CCOCC2)ccc2c3n(c(=NC(=O)c4cnc(N)nc4)nc12)CCN3
53.3

Please give the documented viability, T/C of C#Cc1c(F)ccc2cc(O)cc(-c3ncc4c(N5CC6CCC(C5)N6)nc(OCC56CCCN5CC(F)C6)nc4c3F)c12 (stereo not given) + COc1c(OCCCN2CCOCC2)ccc2c3n(c(=NC(=O)c4cnc(N)nc4)nc12)CCN3
53.7

Fill in reported viability, T/C for this entry: Cn1nccc1Nc1nccc(-c2ccn(C(CO)c3ccc(Cl)c(F)c3)c(=O)c2)n1 (stereo not given) + COc1c(OCCCN2CCOCC2)ccc2c3n(c(=NC(=O)c4cnc(N)nc4)nc12)CCN3
56.3

Indicate the recorded viability, T/C value for this compound: CC1(C)CCC(Nc2ncc(C(F)(F)F)c(-c3c[nH]c4c(P(C)(C)=O)c(C#N)ccc34)n2)CN1 (stereo not given) + Cc1nc(NC(=O)N2CCCC2C(N)=O)sc1-c1ccnc(C(C)(C)C(F)(F)F)c1
33.3
